Here's what we have: Maximum Non-Hemolytic Concentration numbers for blood.

Please report the recorded Maximum Non-Hemolytic Concentration for O=C(O)CC(F)(F)C(F)(F)C(F)(F)C(F)(F)C(F)(F)C(F)(F)F [2p3e] .
0.25%

Please report the recorded Maximum Non-Hemolytic Concentration for O=C(O)CSCCC(F)(F)C(F)(F)C(F)(F)C(F)(F)C(F)(F)C(F)(F)C(F)(F)C(F)(F)F [2a3e] .
0.25%

Please report the recorded Maximum Non-Hemolytic Concentration for O=C(O)CCC(=O)OCCC(F)(F)C(F)(F)C(F)(F)C(F)(F)C(F)(F)C(F)(F)C(F)(F)C(F)(F)F [2j3a] .
>2.00%

Please report the recorded Maximum Non-Hemolytic Concentration for O=C(O)CCCC(=O)OCCC(F)(F)C(F)(F)C(F)(F)C(F)(F)C(F)(F)C(F)(F)C(F)(F)C(F)(F)F [2l3c] .
>2.00%

Please report the recorded Maximum Non-Hemolytic Concentration for O=C(O)CCCCCSCCC(F)(F)C(F)(F)C(F)(F)C(F)(F)C(F)(F)C(F)(F)C(F)(F)C(F)(F)F [2c3k] .
0.05%

Please report the recorded Maximum Non-Hemolytic Concentration for O=C(O)CCCCCSCCC(F)(F)C(F)(F)C(F)(F)C(F)(F)C(F)(F)C(F)(F)C(F)(F)C(F)(F)F [2c3f] .
0.01%

Please report the recorded Maximum Non-Hemolytic Concentration for O=C(O)CCC(=O)OCCC(F)(F)C(F)(F)C(F)(F)C(F)(F)C(F)(F)C(F)(F)F [2i3l] .
0.05%

Please report the recorded Maximum Non-Hemolytic Concentration for O=C(O)CSCCC(F)(F)C(F)(F)C(F)(F)C(F)(F)C(F)(F)C(F)(F)C(F)(F)C(F)(F)F [2a3c] .
0.2%

Please report the recorded Maximum Non-Hemolytic Concentration for O=C(O)CCC(=O)OCCC(F)(F)C(F)(F)C(F)(F)C(F)(F)C(F)(F)C(F)(F)F [2i3c] .
0.02%

Please report the recorded Maximum Non-Hemolytic Concentration for O=C(O)CCCC(=O)OCCC(F)(F)C(F)(F)C(F)(F)C(F)(F)C(F)(F)C(F)(F)C(F)(F)C(F)(F)F [2l3k] .
>2.00%

Please report the recorded Maximum Non-Hemolytic Concentration for O=C(O)CCCC(=O)OCCC(F)(F)C(F)(F)C(F)(F)C(F)(F)C(F)(F)C(F)(F)C(F)(F)C(F)(F)F [2l3e] .
>2.00%

Please report the recorded Maximum Non-Hemolytic Concentration for O=C(O)CCC(=O)OCCC(F)(F)C(F)(F)C(F)(F)C(F)(F)C(F)(F)C(F)(F)C(F)(F)C(F)(F)F [2j2j3h] .
>2.00%

Please report the recorded Maximum Non-Hemolytic Concentration for O=C(O)CCCC(=O)OCCC(F)(F)C(F)(F)C(F)(F)C(F)(F)C(F)(F)C(F)(F)F [2k3k] .
0.05%

Please report the recorded Maximum Non-Hemolytic Concentration for O=C(O)CSCCC(F)(F)C(F)(F)C(F)(F)C(F)(F)C(F)(F)C(F)(F)C(F)(F)C(F)(F)F [2a3b] .
0.25%

Please report the recorded Maximum Non-Hemolytic Concentration for O=C(O)CSCCC(F)(F)C(F)(F)C(F)(F)C(F)(F)C(F)(F)C(F)(F)C(F)(F)C(F)(F)F [2a3f] .
>2.00%

Please report the recorded Maximum Non-Hemolytic Concentration for O=C(O)CCCC(=O)OCCC(F)(F)C(F)(F)C(F)(F)C(F)(F)C(F)(F)C(F)(F)F [2k3c] .
0.05%

Please report the recorded Maximum Non-Hemolytic Concentration for O=C(O)CCCC(=O)OCCC(F)(F)C(F)(F)C(F)(F)C(F)(F)C(F)(F)C(F)(F)F [2k3e] .
0.05%

Please report the recorded Maximum Non-Hemolytic Concentration for O=C([O-])CCC(=O)OCCC(F)(F)C(F)(F)C(F)(F)C(F)(F)C(F)(F)C(F)(F)C(F)(F)C(F)(F)F.[Na+] .
1%

Please report the recorded Maximum Non-Hemolytic Concentration for O=C(O)CCCC(=O)OCCC(F)(F)C(F)(F)C(F)(F)C(F)(F)C(F)(F)C(F)(F)C(F)(F)C(F)(F)F [2l3l] .
>2.00%

Please report the recorded Maximum Non-Hemolytic Concentration for O=C([O-])CSCCC(F)(F)C(F)(F)C(F)(F)C(F)(F)C(F)(F)C(F)(F)C(F)(F)C(F)(F)F.[K+] .
>2.00%

Please report the recorded Maximum Non-Hemolytic Concentration for O=C(O)CCCCCSCCC(F)(F)C(F)(F)C(F)(F)C(F)(F)C(F)(F)C(F)(F)C(F)(F)C(F)(F)F [2c3a] .
0.02%

Please report the recorded Maximum Non-Hemolytic Concentration for O=C(O)CCCCCSCCC(F)(F)C(F)(F)C(F)(F)C(F)(F)C(F)(F)C(F)(F)C(F)(F)C(F)(F)F [2c3e] .
0.02%

Please report the recorded Maximum Non-Hemolytic Concentration for O=C([O-])CCC(=O)OCCC(F)(F)C(F)(F)C(F)(F)C(F)(F)C(F)(F)C(F)(F)F.[K+] .
0.02%

Please report the recorded Maximum Non-Hemolytic Concentration for O=C(O)CSCCC(F)(F)C(F)(F)C(F)(F)C(F)(F)C(F)(F)C(F)(F)C(F)(F)C(F)(F)F [2a3a] .
0.05%

Please report the recorded Maximum Non-Hemolytic Concentration for O=C(O)CCC(=O)OCCC(F)(F)C(F)(F)C(F)(F)C(F)(F)C(F)(F)C(F)(F)C(F)(F)C(F)(F)F [2j3k] .
1%

Please report the recorded Maximum Non-Hemolytic Concentration for O=C(O)CCC(=O)OCCC(F)(F)C(F)(F)C(F)(F)C(F)(F)C(F)(F)C(F)(F)F [2i3e] .
0.05%

Please report the recorded Maximum Non-Hemolytic Concentration for O=C(O)C(CCC(F)(F)C(F)(F)C(F)(F)C(F)(F)C(F)(F)C(F)(F)C(F)(F)C(F)(F)F)C(=O)O .
0.1%

Please report the recorded Maximum Non-Hemolytic Concentration for O=C(O)CC(F)(F)C(F)(F)C(F)(F)C(F)(F)C(F)(F)C(F)(F)F [2p3c] .
0.25%

Please report the recorded Maximum Non-Hemolytic Concentration for O=C(O)CCC(=O)OCCC(F)(F)C(F)(F)C(F)(F)C(F)(F)C(F)(F)C(F)(F)F [2i2i3h] .
0.05%

Please report the recorded Maximum Non-Hemolytic Concentration for O=C(O)CCCC(=O)OCCC(F)(F)C(F)(F)C(F)(F)C(F)(F)C(F)(F)C(F)(F)F [2k3l] .
0.05%

Please report the recorded Maximum Non-Hemolytic Concentration for O=C(O)CCC(=O)OCCC(F)(F)C(F)(F)C(F)(F)C(F)(F)C(F)(F)C(F)(F)C(F)(F)C(F)(F)F [2j3e] .
1%

Please report the recorded Maximum Non-Hemolytic Concentration for O=C(O)CCCCCSCCC(F)(F)C(F)(F)C(F)(F)C(F)(F)C(F)(F)C(F)(F)C(F)(F)C(F)(F)F [2c3l] .
0.02%
